- Assay System: human β3 adrenergic receptor (Homo sapiens)
- Construct: expressed in transfected cells; host or cells: Chinese hamster ovary (CHO) cells, stably transfected
- Sequence (P13945 whole entry): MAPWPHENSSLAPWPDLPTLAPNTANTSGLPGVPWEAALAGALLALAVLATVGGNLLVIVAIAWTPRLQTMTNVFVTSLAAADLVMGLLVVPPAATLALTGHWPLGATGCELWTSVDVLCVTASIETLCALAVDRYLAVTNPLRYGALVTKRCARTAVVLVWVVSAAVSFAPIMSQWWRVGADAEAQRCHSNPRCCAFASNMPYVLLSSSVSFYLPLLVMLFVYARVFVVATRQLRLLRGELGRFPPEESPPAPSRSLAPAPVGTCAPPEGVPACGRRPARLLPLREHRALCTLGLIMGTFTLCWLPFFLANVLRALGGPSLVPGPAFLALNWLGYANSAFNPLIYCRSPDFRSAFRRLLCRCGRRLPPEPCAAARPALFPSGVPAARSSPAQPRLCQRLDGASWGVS
- Test Description: Beta-3 agonist in vitro functional assay: cAMP production (LANCE TR-FRET) in CHO cells stably transfected with the cloned β3 receptor
- Assay type: cell-based
- Condition Parameters: Table 5; cAMP, CHO cells; read-out: Human β3 agonist functional activity
Assay Endpoint: EC50

# count of solved cases: 10
If you can, please state the reported EC50 value of O=C(c1ccc(C[C@@H]2CC[C@H]([C@H](O)c3ccccc3)N2)cc1)N1CCC(C(O)c2ccccn2)CC1 (stereo partly shown) .
10 to 99.9 nM

If you can, please state the reported EC50 value of O=C(c1ccc(C[C@@H]2CC[C@H]([C@H](O)c3ccccc3)N2)cc1)N1CCC(Oc2ccccn2)CC1 .
10 to 99.9 nM

If you can, please state the reported EC50 value of Cn1cc(C2CCN(C(=O)c3ccc(C[C@@H]4CC[C@H]([C@H](O)c5ccccc5)N4)cc3)CC2)nn1 .
100 to 999 nM

If you can, please state the reported EC50 value of Cc1nccc(OC2CCN(C(=O)c3ccc(C[C@@H]4CC[C@H]([C@H](O)c5ccccc5)N4)cc3)CC2)n1 .
100 to 999 nM

If you can, please state the reported EC50 value of O=C(c1ccc(C[C@@H]2CC[C@H]([C@H](O)c3ccccc3)N2)cc1)N1CCC(c2nn[nH]n2)CC1 .
10 to 99.9 nM

If you can, please state the reported EC50 value of O=C(c1ccc(C[C@@H]2CC[C@H]([C@H](O)c3ccccc3)N2)cc1)N1CCC(Cn2cccn2)CC1 .
10 to 99.9 nM

If you can, please state the reported EC50 value of O=C(c1ncco1)C1CCN(C(=O)c2ccc(C[C@@H]3CC[C@H]([C@H](O)c4ccccc4)N3)cc2)CC1 .
10 to 99.9 nM

If you can, please state the reported EC50 value of O=C(c1ccc(C[C@@H]2CC[C@H]([C@H](O)c3ccccc3)N2)cc1)N1CCC(S(=O)(=O)CC(F)(F)F)CC1 .
10 to 99.9 nM

If you can, please state the reported EC50 value of Cc1ccc(S(=O)(=O)C2CCN(C(=O)c3ccc(C[C@@H]4CC[C@H]([C@H](O)c5cccnc5)N4)cc3)CC2)cc1 .
100 to 999 nM

If you can, please state the reported EC50 value of N#Cc1ccc(S(=O)(=O)C2CCN(C(=O)c3ccc(C[C@@H]4CC[C@H]([C@H](O)c5ccccc5)N4)cc3)CC2)cc1 .
10 to 99.9 nM

---
If you can, please state the reported EC50 value of O=C(O)c1cc(OC2CCN(C(=O)c3ccc(C[C@@H]4CC[C@H]([C@H](O)c5ccccc5)N4)cc3)CC2)no1 .
100 to 999 nM

If you can, please state the reported EC50 value of O=C(c1ccc(C[C@@H]2CC[C@H]([C@H](O)c3ccccc3)N2)cc1)N1CCC(Cn2ccnc2)CC1 .
100 to 999 nM

---

- Assay System: human β3 adrenergic receptor (Homo sapiens)
- Construct: expressed in transfected cells; host or cells: Chinese hamster ovary (CHO) cells, stably transfected
- Test Description: Beta-3 agonist in vitro functional assay: cAMP production (LANCE TR-FRET) in CHO cells stably transfected with the cloned β3 receptor
- Format: cell-based
- Condition Parameters: human β3 functional activity
pEC50: −log10 of the molar value.
pEC50 overview

If you can, please state the reported pEC50 value of C[C@@H](c1ccccn1)N1C2CCC1C1CCC2N1C(=O)c1ccc(C[C@@H]2CC[C@H]([C@H](O)c3ccccc3)N2)cc1 [Example 526] .
7.00 to 8.00

If you can, please state the reported pEC50 value of C[C@H](c1ccccn1)N1C2CCC1C1CCC2N1C(=O)c1ccc(C[C@@H]2CC[C@H]([C@H](O)c3ccccc3)N2)cc1 [Example 525] .
7.00 to 8.00

Every entry's value here was drawn from patent US8354403B2.
